- System: RXF 393
- Assay method text: NCI tumour cell line growth inhibition, 48 h
Activity calls are given as the source filed them. No stated cut-off is given here; in the data, active = GI50 up to about 1.1 µM and inactive = higher.
Listed below: GI50 values for each entry.

Below, 5 compounds whose answers are already recorded.
Compound	GI50
OC(C/C=N/Nc1ccccc1)(C(F)(F)Cl)C(F)(F)Cl	6.75 µM (inactive)
NCCCN1CCN(c2ccccc2)CC1	> 100 µM (inactive)
O=NC1c2cccc3cccc(c23)C1N=O (configuration not stated)	3.51 µM (inactive)
O=CNC(Cc1c[nH]cn1)C(=O)O (configuration not stated)	> 100 µM (inactive)
O=c1cc(-c2ccccc2)oc2c1ccc1nc3ccccc3c(O)c12	31.6 µM (inactive)

Now turn to the next compound.
Consider the compound shown here: O=[N+]([O-])c1ccc(/C=N/n2c(CO)nc3ccccc32)o1 What is its recorded GI50?
5.07 µM (inactive)

###

- System: SK-MEL-5
- Assay method text: NCI tumour cell line growth inhibition, 48 h
The source made the active and inactive calls. No stated cut-off is given here; in the data, active = GI50 up to about 1.1 µM and inactive = higher.
Readout: GI50

Below, 3 molecules whose answers are already recorded.
Molecule	GI50
CC(C)Cc1ccc(C(C)/C=C2\CCC(CN3CCCC3)C2=O)cc1 (centres undefined)	14.8 µM (inactive)
CCSCCCSCCSCC	> 100 µM (inactive)
N#CCCN(CCC#N)c1ccc(C(Sc2ccccc2)C(NC(=O)c2cc([N+](=O)[O-])ccc2Cl)C(=O)Sc2ccccc2)cc1 (centres undefined)	3.27 µM (inactive)

Now turn to the next molecule.
Consider the molecule shown here: CC(=O)c1cccc(NC2C(N)C(NC(=O)N(C)C)(C(C)O)C(C)(O)C2(O)COC(=O)c2c(C)cccc2O)c1 (centres undefined) What is its recorded GI50?
< 0.001 µM (active)

###

- Test system: CAKI-1
- Assay method text: NCI tumour cell line growth inhibition, 48 h
Activity calls are given as the source filed them. Rule as the data show it: active = GI50 up to about 1.1 µM and inactive = higher.
Listed below: GI50 values for each entry.

Below, 4 compounds whose answers are already recorded.
Nc1c2c(nc3ccccc13)CCCc1ccccc1-2 15.9 µM (inactive)
NN 445 µM (inactive)
O=C(Cn1ccnc1[N+](=O)[O-])c1ccccc1 > 100 µM (inactive)
CCCCN(CCCC)c1c([N+](=O)[O-])c(=O)nc2ccccn12 > 10 µM (inactive)

Now turn to the next compound.
Consider the compound shown here: CC1=N/C(=C\c2ccc(/C=C3/N=C(C)OC3=O)cc2)C(=O)O1 What is its recorded GI50?
> 100 µM (inactive)

###

Listed below: GI50 values for each entry.
- Tested on: A549
- Assay method text: NCI tumour cell line growth inhibition, 48 h
Activity calls are given as the source filed them. No stated cut-off is given here; in the data, active = GI50 up to about 1.1 µM and inactive = higher.

Below, 3 compounds whose answers are already recorded.
Compound	Measured on	GI50
N#Cc1ccccc1NC(=O)/C(=N\N)C(C(=O)c1ccncc1)C1OC(=O)c2ccccc21 (stereo not drawn)	A549	> 100 µM (inactive)
Cc1ccc2c(c1)nc1n2C(N)=Nc2ccccc2S1	A549	25.4 µM (inactive)
COc1cc(OC)c2nc(C)c(CCCl)c(Cl)c2c1	A549	> 100 µM (inactive)

Consider the compound shown here: CCOP(=O)(OCC)C(F)(F)CC1CCCCC1 What is its recorded GI50?
> 10 µM (inactive)

Consider the compound shown here: COC(=O)[C@]12CCC(C)(C)C[C@H]1C1=CC[C@@H]3[C@@]4(C)CC[C@H](OC5OC(CO)C(O)C(O)C5OC5OC(CO)C(O)C(O)C5O)C(C)(C)[C@@H]4CC[C@@]3(C)[C@]1(C)CC2 (stereo partly drawn) What is its recorded GI50?
8.83 µM (inactive)

Consider the compound shown here: CN(C)CCNC(=O)c1cccc(C(=O)Nc2ccccc2)c1[N+](=O)[O-] What is its recorded GI50?
> 100 µM (inactive)

Sourced from ChEMBL document CHEMBL1201862
